B1: tRNA (parent)
chain: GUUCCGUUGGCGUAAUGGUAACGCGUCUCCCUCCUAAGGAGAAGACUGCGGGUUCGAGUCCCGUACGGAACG

Variants of: B1
Assay: yeast fitness relative to wild type (ratio to wild type); higher = fitter; tRNA-Arg(CCU), competitive growth, 37 C, YPD
This sample holds only a part of the variants without activity.
endpoint: yeast fitness
Number only, please.

Notebook: C22G U26A C29G A70U , yeast fitness read as 0.591

Notebook: A36C A65G , yeast fitness read as 0.598

Notebook: U2A A21C C29U A57C , yeast fitness read as 0.583

Notebook: A21C C29G , yeast fitness read as 0.622

Notebook: U8A C55U G68A , yeast fitness read as 0.578

Notebook: G25C U28A G51A , yeast fitness read as 0.604

Notebook: C46U C55G , yeast fitness read as 0.65

Notebook: C4G A20U C46U , yeast fitness read as 0.614

Notebook: G12A C27A C30G , yeast fitness read as 0.626

Notebook: U7G C22G G50A , yeast fitness read as 0.514

Notebook: A36U G58A , yeast fitness read as 0.624

Notebook: U2C A65G , yeast fitness read as 0.867

Source listed as the RNAGym collection of RNA variant scans (doi:10.1126/science.aae0568).
